Source of measurements: patent EP0480714A2

Molecular target: HIV protease (Human immunodeficiency virus type 1 group M subtype B, UniProt P04585)
pIC50: −log10 of the molar value.
endpoint: pIC50

Q. Quick check: pIC50 on HIV protease (Human immunodeficiency virus type 1 group M subtype B, UniProt P04585), item `O=C(N[C@H]1c2ccccc2C[C@H]1O)[C@H](Cc1ccccc1)CC(O)C[C@@H](Cc1ccccc1)C(=O)N[C@H]1c2ccccc2C[C@H]1O` ?
A. ~9.15
